The measured values listed here are drawn from patent US20220354911A1.

System: T24
Assay: IC50 concentration of PD-0332991
Assay type: cell-based
Details: Homo sapiens, T-24
Recorded Endpoint: pIC50
Conceptually, pIC50 converts a concentration in mol/L into minus its log10.

Entry under test: CC(=O)c1c(C)c2cnc(Nc3ccc(N4CCNCC4)cn3)nc2n(C2CCCC2)c1=O . Its pIC50 was 6.30

* * *

System: Rb, phRB and E2F1
Assay: Western blot of UMUC cells treated with cell cycle inhibitors
Format: cell-based, human
Conditions: 24 hours post-treatment, LEE-011 at 10 μM, MI-1040 at 1 μM

Sample Smiles	Study System	Rb, phRB and E2F1 expression
O=C(NOCC1CC1)c1ccc(F)c(F)c1Nc1ccc(I)cc1Cl	Rb, phRB and E2F1	induced inhibition
CC[C@H](CO)Nc1nc(NCc2ccccc2)c2ncn(C(C)C)c2n1	Rb, phRB and E2F1	no pronounced effect
COc1ccc(C2=N[C@@H](c3ccc(Cl)cc3)[C@@H](c3ccc(Cl)cc3)N2C(=O)N2CCNC(=O)C2)c(OC(C)C)c1	Rb, phRB and E2F1	no pronounced effect
CN(C)C(=O)c1cc2cnc(Nc3ccc(N4CCNCC4)cn3)nc2n1C1CCCC1	Rb, phRB and E2F1	induced inhibition
